# Experimental system: TIE2 intracellular domain/c-fms extracellular domain (TIE2/c-fms) chimeric protein expressing mouse 3T3 cells (Homo sapiens)
# Construct: a TIE2 intracellular domain/c-fms extracellular domain (TIE2/c-fms) chimeric protein
# Sequence (Q02763 770-1124 limits assumed, change not shown): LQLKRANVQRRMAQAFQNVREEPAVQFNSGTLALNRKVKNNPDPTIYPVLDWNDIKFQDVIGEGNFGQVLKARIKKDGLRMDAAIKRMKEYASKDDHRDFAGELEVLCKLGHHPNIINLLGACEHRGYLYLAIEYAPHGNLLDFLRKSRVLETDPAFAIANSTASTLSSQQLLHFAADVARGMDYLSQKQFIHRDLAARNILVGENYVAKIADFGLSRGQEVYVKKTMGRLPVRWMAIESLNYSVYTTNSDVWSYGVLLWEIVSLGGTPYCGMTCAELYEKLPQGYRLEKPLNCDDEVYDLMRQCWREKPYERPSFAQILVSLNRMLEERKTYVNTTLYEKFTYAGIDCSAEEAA
# Measurement description: TIE-2 autophosphorylation assay (TIE2-C), ELISA
# Run parameters: TIE2/c-fms 3T3 cells, MCSF activation
pIC50: −log10 of the molar value. Counter-ions that a name gives are not always drawn.
Measured endpoint: pIC50

In [3]: df
Out[3]:
                                    molecule  measured_endpoint  experimental_result
 0  CN1CCN(CC(=O)Nc2nc3ccc(Oc4ccc(NC(=O)Nc5cc(C(F)(F)F)ccc5F)cc4)cc3[nH]2)CC1              pIC50               > 7.00
 1  COC(=O)Nc1nc2ccc(Sc3ccc(NC(=O)Nc4cccc(C(F)(F)F)c4)cc3)cc2[nH]1              pIC50               > 7.00
 2  COC(=O)Nc1nc2cc(Oc3ccc(NC(=O)Nc4cc(OC)ccc4OC)cc3)ccc2[nH]1              pIC50               > 7.00
 3  O=C(Nc1ccc(Oc2ccc3[nH]c(NC(=O)c4ccccc4)nc3c2)cc1)Nc1cc(C(F)(F)F)ccc1F              pIC50         6.00 to 7.00
 4  COC(=O)Nc1nc2cc(Oc3ccc(NC(=O)Nc4cccc(Br)c4)cc3)ccc2[nH]1              pIC50               > 7.00
 5  O=C(Nc1ccc(Oc2ccc3nc(NC(=O)c4cccnc4)[nH]c3c2)cc1)Nc1cc(C(F)(F)F)ccc1F              pIC50               > 7.00
 6  COC(=O)Nc1nc2c(Br)cc(Oc3ccc(NC(=O)Nc4cc(C(F)(F)F)ccc4F)cc3)cc2s1.Cl [Example 65, hydrochloride]              pIC50               > 7.00
 7  COC(=O)Nc1nc2cc(Oc3ccc(NC(=O)Nc4cccc(SC(F)(F)F)c4)cc3)ccc2[nH]1              pIC50               > 7.00
 8  COC(=O)Nc1nc2ccc(Oc3ccc(NC(=O)Nc4cc(C(F)(F)F)ccc4F)cc3)cc2n1CCN1CCOCC1              pIC50         6.00 to 7.00
 9  O=C(Cn1nnc(N2CCCC2)n1)Nc1nc2cc(Oc3ccc(NC(=O)Nc4cc(C(F)(F)F)ccc4F)cc3)ccc2[nH]1              pIC50               > 7.00
10  Cc1ccc(S(=O)(=O)n2c(N)nc3ccc(Oc4ccc(NC(=O)Nc5cc(C(F)(F)F)ccc5F)cc4)cc32)cc1              pIC50         6.00 to 7.00
11  CN1CCN(CCNc2nc3cc(Oc4ccc(NC(=O)Nc5cc(C(F)(F)F)ccc5F)cc4)ccc3[nH]2)CC1              pIC50         6.00 to 7.00
12  COC(=O)Nc1nc2cc(Oc3ccc(NC(=O)Nc4cc(Cl)ccc4Cl)cn3)ccc2[nH]1 [Example 112, dihydrochloride]              pIC50         6.00 to 7.00
13  COC(=O)Nc1nc2ccc(Oc3ccc(NC(=O)Nc4cc(C(F)(F)F)ccc4F)cc3)cc2o1              pIC50               > 7.00
14  COCC(=O)Nc1nc2cc(Oc3ccc(NC(=O)Nc4cc(C(F)(F)F)ccc4F)cc3)ccc2[nH]1              pIC50               > 7.00
15  COC(=O)Nc1nc2ccc(Oc3ccc(NC(=O)Nc4cc(C(F)(F)F)ccc4F)c[n+]3[O-])cc2[nH]1              pIC50         6.00 to 7.00
16  COC(=O)Nc1cn2cc(Oc3ccc(NC(=O)Nc4cc(C(F)(F)F)ccc4F)cc3)ccc2n1              pIC50               > 7.00
17  COC(=O)Nc1nc2cc(Oc3ccc(NC(=O)Nc4cc([N+](=O)[O-])ccc4F)cc3)ccc2[nH]1              pIC50               > 7.00
18  COC(=O)Nc1nc2cc(Oc3ccc(NC(=O)Nc4cccc(Cl)c4)cc3)ccc2[nH]1              pIC50         6.00 to 7.00
19  COC(=O)Nc1nc2cc(Oc3ccc(NC(=O)Nc4cccc(C(F)(F)F)c4)cc3)ccc2[nH]1              pIC50               > 7.00
20  COC(=O)Nc1nc2cc([S+]([O-])c3ccc(NC(=O)Nc4cc(C(F)(F)F)ccc4F)cc3)ccc2[nH]1 (centres unmarked)              pIC50         6.00 to 7.00
21  COC(=O)Nc1nc2ccc(Oc3ccc(NC(=O)Nc4cc(Cl)ccc4Cl)cc3)nc2[nH]1.Cl [Example 74, dihydrochloride]              pIC50               > 7.00
22  O=C(Nc1ccc(Oc2ccc3[nH]c(NC(=O)c4c[nH]cn4)nc3c2)cc1)Nc1cc(C(F)(F)F)ccc1F              pIC50               > 7.00
23  COC(=O)Nc1nc2cc(Oc3ccc(NC(=O)Nc4cc([N+](=O)[O-])ccc4C)cc3)ccc2[nH]1              pIC50               > 7.00
24  COC(=O)Nc1nc2cc(Oc3ccc(NC(=O)Nc4cc(Cl)ccc4Cl)cc3)ccc2[nH]1              pIC50               > 7.00
25  O=C(O)CCC(=O)Nc1nc2cc(Oc3ccc(NC(=O)Nc4cc(C(F)(F)F)ccc4F)cc3)ccc2[nH]1              pIC50         6.00 to 7.00
26  COC(=O)Nc1nc2cc(Oc3ccc(NC(=O)Nc4cccc(C(F)(F)F)c4)cn3)ccc2[nH]1              pIC50               > 7.00
27  COC(=O)Nc1nc2cc(Oc3ccc(NC(=O)Nc4ccc(Cl)c(C(F)(F)F)c4)cc3)ccc2[nH]1              pIC50         6.00 to 7.00
28  COCCOCCOCC(=O)Nc1nc2ccc(Oc3ccc(NC(=O)Nc4cc(C(F)(F)F)ccc4F)cc3)cc2[nH]1              pIC50               > 7.00
